# Assay Notes: folding stability dG unfold (combined trypsin and chymotrypsin); higher = more stable
Decide using folding stability dG unfold: a value greater than or equal to 2 kcal/mol is Satisfied, a smaller one is Not satisfied.

1) SAGDPEVVAEAEFPFTFPLAKIEVRISVYPDGTARIEVTITFPAPGKGNPKKPIKLRFRFEIKLAPDALSAG [r5_224_TrMRF]; Satisfied
2) SAGGSAMTIEIEAPVPAGVEVDATALFVTPDGYLYLAEVRSVGPGWARITIPVYRFDDNLDDPDFLSAGGSA [r15_909_TrMRF]; Satisfied
3) SAGGSAGGSAGYIKTEHEVTVMEKDPDGGTKMIEVPVKITIPIIPIPPEALEKNPEALKKFLSAGGSAGGSA [r18_114_TrROS]; Not satisfied
4) SAGGSDTVVLDFTVTVDGKPYTVRVTLTRNPPTGEITVPVEIESANPEDAVPAREVADALVERLLSSAGGSA [r2_259_TrMRF]; Not satisfied
5) SAGGSAGGSAGMKVREITGPPDDAKELLDENPDGITSIAIEPHPKNGQYRITFFDQGPPKSAGGSAGGSAGG [r17_79_TrROS]; Not satisfied
6) SAGGSAGGSKTIVLPKNMSIEQAREEILAKARELLPPGEKLKVTIEVVETPEGTYLKITIEKESAGGSAGGS [r12_1051_TrROS_Hall]; Satisfied
7) SAGGMIEVFVEGLTLEETLRRLAEEYPDVPEVVVFFPDGTAVFFRRDGDEVEVVEVVPVGPVAPDELSAGGS [r8_225_TrMRF]; Satisfied
